assay: Metabolic stability in rat serum assessed as half time of disappearance at 1 mM by MALDI-TOF mass spectrometry assay; assay type: ADME, cell-free; settings: read-out: T50
Non-standard residues stand in square brackets, D forms with d. Residues, ends and D or L forms follow the SMILES beside them. *: point of attachment. Tle = CC(C)(C)[C@H](N)C(=O)O; X3 = C[C@](N)(CCCCN)CC(=O)*; β3hK = NCCCC[C@H](N)CC(=O)O

# compound, readingUnit, half-life at 1000 µM
records = [
    ("CC[C@@H](C)[C@H](NC(=O)[C@H](Cc1ccc(O)cc1)NC(=O)[C@@H]1CCCN1C(=O)[C@H](CCCNC(=N)N)NC(=O)CCCCNC(=N)N)C(=O)N[C@@H](CC(C)C)C(=O)O", "h", 1.45),
    ("CC(=O)N[C@@H](CCCNC(=N)N)C(=O)N[C@@H](CCCCN)C(=O)N1CCC[C@H]1C(=O)N[C@@H](Cc1c[nH]c2ccccc12)C(=O)N[C@H](C(=O)N[C@@H](CC(C)C)C(=O)O)C(C)(C)C (Ac-RKPW[Tle]L-OH)", "h", 94.3),
    ("CC[C@H](C)[C@H](NC(=O)[C@H](Cc1ccc(O)cc1)NC(=O)[C@@H]1CCCN1C(=O)[C@H](CCCNC(=N)N)NC(=O)[C@H](CCCNC(=N)N)NC(C)=O)C(=O)N[C@@H](CC(C)C)C(=O)O", "h", 3.5),
    ("CC(=O)N[C@@H](CCCCN)CC(=O)N[C@@H](CCCN=C(N)N)C(=O)N1CCC[C@H]1C(=O)N[C@@H](Cc1ccc(O)cc1)C(=O)N[C@H](C(=O)N[C@@H](CC(C)C)C(=O)O)C(C)(C)C (Ac-[β3hK]RPY[Tle]L-OH)", "h", 57),
    ("CC(C)C[C@H](NC(=O)[C@@H](NC(=O)[C@H](Cc1ccc(O)cc1)NC(=O)[C@@H]1CCCN1C(=O)[C@H](CCCNC(=N)N)NC(=O)C[C@@](C)(N)CCCCN)C(C)(C)C)C(=O)O (X3-RPY[Tle]L-OH)", "h", 49.7),
]

====

molecular target: Neurotensin receptor type 1 (Homo sapiens); experiment: Agonist activity at NTR1 in human HT-29 cells assessed as increase in intracellular calcium concentration by FLIPR assay
Sequence (P30989 whole entry): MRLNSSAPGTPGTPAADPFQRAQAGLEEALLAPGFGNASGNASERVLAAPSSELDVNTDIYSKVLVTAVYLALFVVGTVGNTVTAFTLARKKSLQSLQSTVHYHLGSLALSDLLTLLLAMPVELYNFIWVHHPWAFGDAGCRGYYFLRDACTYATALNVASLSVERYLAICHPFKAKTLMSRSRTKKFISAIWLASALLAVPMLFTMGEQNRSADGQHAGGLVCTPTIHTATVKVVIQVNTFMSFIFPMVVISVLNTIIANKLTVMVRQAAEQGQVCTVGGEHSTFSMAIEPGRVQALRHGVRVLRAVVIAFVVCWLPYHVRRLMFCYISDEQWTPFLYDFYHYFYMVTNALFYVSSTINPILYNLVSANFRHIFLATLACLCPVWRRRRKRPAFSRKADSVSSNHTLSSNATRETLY
pEC50: −log10 of the molar value. Non-standard residues stand in square brackets, D forms with d. Residues, ends and D or L forms follow the SMILES beside them. *: point of attachment. X1 = [N-]=[N+]=N[C@@H](CCCNC(=N)N)C(=O)*; Tle = CC(C)(C)[C@H](N)C(=O)O
# pEC50 annotations
parameterMeasured: pEC50

# compound, parameterMeasured, reading
records = [
    ("CC[C@@H](C)[C@H](NC(=O)[C@H](Cc1ccc(O)cc1)NC(=O)[C@@H]1CCCN1C(=O)[C@H](CCCN=C(N)N)NC(=O)[C@H](CCCN=C(N)N)N=[N+]=[N-])C(=O)N[C@@H](CC(C)C)C(=O)O", "pEC50", 9.11),
    ("CC(C)C[C@H](NC(=O)[C@@H](NC(=O)[C@H](Cc1c[nH]c2ccccc12)NC(=O)[C@@H]1CCCN1C(=O)[C@H](CCCCN)NC(=O)[C@H](CCCNC(=N)N)N=[N+]=[N-])C(C)(C)C)C(=O)O (X1-KPW[Tle]L-OH)", "pEC50", 6.82),
]

meta.source: ChEMBL document CHEMBL1153387
